assay-notes: collision cross section (TIMS, N2 drift gas) of the primary ion; higher = larger gas-phase ion size
reported-conditions: ionization mode: ESI+; ion species: [M+H]+
Is collision cross section at least 200 Å²? Then class 1. If not, class 0.

[
  {
    "compound": "C[C@]12CCC(=O)C=C1CC[C@@H]1[C@@H]2[C@@H](O)C[C@@]2(C)[C@H]1CC[C@]2(O)C(=O)CO [Hydrocortisone]",
    "qualitative-label": "class 0"
  }
]

Query: Test whether the compound `Cn1ncc(N)c(Cl)c1=O` records collision cross section of 200 Å² or higher.
Reply: class 0

====

Here the recorded collision cross section is given for each entry.
assay-notes: collision cross section (TIMS, N2 drift gas) of the primary ion; higher = larger gas-phase ion size
reported-conditions: ionization mode: ESI+; ion species: [M+H]+
Quick reminder: number only, in Å², skip the unit.

[
  {
    "molecule": "CCN1CCN(c2cc3c(cc2F)c(=O)c(C(=O)O)cn3C2CC2)CC1",
    "measured-parameter": "collision cross section",
    "measured-result": 186.48
  }
]

Query: Return collision cross section (reported value) for this molecule: CNC1=C(c2cccc(C(F)(F)F)c2)C(=O)C(c2ccccc2)O1 (stereo not drawn)
Reply: 179.28

Query: Return collision cross section (reported value) for this molecule: `N#Cc1ccc(C/C(=N\NC(=O)Nc2ccc(OC(F)(F)F)cc2)c2cccc(C(F)(F)F)c2)cc1`
Reply: 213.54

Query: Return collision cross section (reported value) for this molecule: `CCCN(CCC)CCC`
Reply: 131.65

Query: Return collision cross section (reported value) for this molecule: `CCCCCCCCn1sccc1=O`
Reply: 157.49

Query: Return collision cross section (reported value) for this molecule: CCC(=O)O[C@]1(C(=O)SCF)[C@H](C)C[C@H]2[C@@H]3C[C@H](F)C4=CC(=O)C=C[C@]4(C)[C@@]3(F)[C@@H](O)C[C@@]21C [Fluticasone propionate]
Reply: 212.76

====

assay-notes: reversed-phase LC retention time (C18, 15 min MeOH gradient); higher = more hydrophobic / later elution
reported-conditions: ionization mode: ESI+; ion species: [M+H]+
Is reversed-phase LC retention time at least 10 min? Then class 1. If not, class 0.

[
  {
    "compound": "CN1CCCC(n2nc(Cc3ccc(Cl)cc3)c3ccccc3c2=O)CC1 (stereo unspecified)",
    "qualitative-label": "class 1"
  },
  {
    "compound": "O=C(O)COCCN1CCN(C(c2ccccc2)c2ccc(Cl)cc2)CC1 (stereo unspecified)",
    "qualitative-label": "class 1"
  },
  {
    "compound": "CC[C@H]1CCC[C@H](O[C@H]2CC[C@H](N(C)C)[C@@H](C)O2)[C@@H](C)C(=O)C2=C[C@@H]3[C@@H](C=C[C@@H]4C[C@@H](O[C@@H]5O[C@@H](C)[C@H](OC)[C@@H](OC)[C@H]5OC)C[C@@H]34)[C@@H]2CC(=O)O1 [Spinosyn A]",
    "qualitative-label": "class 1"
  }
]

Query: Test whether the compound `O=C(NCCc1ncc(C(F)(F)F)cc1Cl)c1ccccc1C(F)(F)F` records reversed-phase LC retention time of 10 min or higher.
Reply: class 1

Query: Test whether the compound CNC(=O)CSP(=O)(OC)OC [Omethoate] records reversed-phase LC retention time of 10 min or higher.
Reply: class 0

Query: Test whether the compound `CO/C=C(/C(=O)O)c1ccccc1Oc1cc(Oc2ccccc2C#N)ncn1` records reversed-phase LC retention time of 10 min or higher.
Reply: class 1

Query: Test whether the compound `Nc1ccc(Oc2ccc(N)cc2)cc1` records reversed-phase LC retention time of 10 min or higher.
Reply: class 0

Query: Test whether the compound `C[C@H](O)C(=O)Nc1c(I)c(C(=O)NC(CO)CO)c(I)c(C(=O)NC(CO)CO)c1I` records reversed-phase LC retention time of 10 min or higher.
Reply: class 0

Query: Test whether the compound `C[C@]12CCC(=O)C=C1CC[C@@H]1[C@@H]2[C@@H](O)C[C@]2(C)C(=O)CC[C@@H]12` records reversed-phase LC retention time of 10 min or higher.
Reply: class 1

Query: Test whether the compound `COc1ccc([C@@H]2Sc3ccccc3N(CCN(C)C)C(=O)[C@@H]2OC(C)=O)cc1` records reversed-phase LC retention time of 10 min or higher.
Reply: class 1

Query: Test whether the compound CN1CCCC1c1cccnc1 (stereo unspecified) records reversed-phase LC retention time of 10 min or higher.
Reply: class 0

Query: Test whether the compound CCNC(=O)c1cccc(C)c1 [N-Ethyl-3-methylbenzamide] records reversed-phase LC retention time of 10 min or higher.
Reply: class 1

Query: Test whether the compound `O=c1c(-c2ccc(O)cc2)coc2cc(O)ccc12` records reversed-phase LC retention time of 10 min or higher.
Reply: class 1
